TEST PROTOCOL: binders of probe aFST on microarray, primary screen, stem cell growth factor project, biochemical, small-molecule microarray, fluorescence 635/667 (AID 1086);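 note: score merges 667 nm fluorescence with signal-to-noise of each printed compound spot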
TEST SETTINGS: higher = more signal
# maps each entry to its composite z-score
Write the number on its own, no unit after it.

Solved entries:
O=C1C2C=CC(C(O)c3cccc(O)c3)N(Nc3ccccc3)C2C(=O)N1c1ccccc1 (stereo not given); 0.35
COc1cc(NN2C(C(O)c3cc(OC)c(OC)c(OC)c3)C=CC3C(=O)N(c4ccccc4)C(=O)C32)cc(OC)c1OC (stereo not given); 0.669
CCN(CC)c1ccc(N2CC=CC34O[C@@H]5C=CCCOC(=O)C5[C@H]3C(=O)N(CCO)[C@@H]4C2=O)cc1 (stereo not given in full); -0.209
CCCCCN1CC=CC23O[C@@H]4C=CCOC(=O)[C@@H]4[C@H]2C(=O)N(CCO)[C@@H]3C1=O (stereo not given in full); -0.455
CO[C@H]1O[C@H](CO)[C@@H](OC(=O)Nc2cccc(F)c2)[C@H](OC(=O)Nc2ccccc2-c2ccccc2)[C@H]1OC(=O)Nc1ccccc1-c1ccccc1; 1.36
COC(=O)[C@@]1(Cc2ccc(F)cc2)[C@H]2c3cc(C(=O)N(C)C)n(Cc4c(CO)[nH]cc(C)c4=O)c3C[C@H]2CN1C(=O)c1ccccc1; 0.255

Given O=c1cccc(-c2ccco2)o1 , respond with its composite z-score.
0.0153

Report composite z-score, nothing else, for this compound: C=CCNC(=O)[C@@H]1[C@H]2C(=O)O[C@H](c3ccccc3)[C@H](c3ccccc3)N2[C@H](c2ccc(O)cc2)[C@@]12C(=O)N(C(=O)OCCOC)c1ccc(C#CCCO)cc12
0.256

Tell me its composite z-score given O=C1O[C@H](c2ccccc2)[C@H](c2ccccc2)N2[C@H]1[C@@H](C(=O)Nc1nc3ccccc3s1)[C@]1(C(=O)Nc3ccc(C#CC4=CCCCC4)cc31)[C@H]2c1ccc(O)cc1 as the entry.
0.845

Report composite z-score, nothing else, for this compound: Cc1c(NC(=O)/C(C#N)=C/c2ccccc2Cl)c(=O)n(-c2ccccc2)n1C
1.27

Return value of composite z-score for input CCCCCCCCCCC(O)C1C=CC2C(=O)N(C)C(=O)C2N1Nc1cc(OC)c(OC)c(OC)c1 (stereo not given) , no commentary.
0.0296

State, in one line, measured composite z-score of CC(C)N1CC=CC23O[C@@H]4/C=C\CCCOC(=O)C4[C@H]2C(=O)N(CCCCCCO)[C@@H]3C1=O (stereo not given in full)
-0.302

Specify reported composite z-score for the compound shown: C[C@@H]1ON(c2ccc(I)cc2)[C@H](c2ccc(OC(=O)OC(C)(C)C)cc2)[C@H]1C(=O)N1C(=O)OC[C@H]1Cc1ccccc1
0.238

Provide composite z-score value for the following compound: C[C@@]12COC[C@]13C=C(Br)[C@H](C2)[C@@]1(CO1)C3=O
-0.476

Tell me measured composite z-score for COCCOC(=O)N1C(=O)[C@@]2(c3cc(C#CCNC(N)=O)ccc31)[C@H](c1ccc(O)cc1)N1[C@H](c3ccccc3)[C@H](c3ccccc3)OC(=O)[C@H]1[C@@H]2C(N)=O please.
-0.567

Please give the documented composite z-score of COc1cc2c(cc1O)C(c1ccc(CN3CCCC3)cc1)N(C)CC2 (stereo not given)
-0.382

Dear colleague, please send me the reported composite z-score for C=C(COC)/C(=C/C[C@@H](OC(C)=O)c1ccc(CO)o1)c1cc(C(=O)OC)ccc1OC when you can.
-0.179

Answer with reported composite z-score of O=C1C2C=CC(C(O)C=Cc3ccc([N+](=O)[O-])cc3)N(Nc3ccccc3)C2C(=O)N1c1ccccc1 (stereo not given)
1.22

Identify composite z-score associated with the compound O=C1N[C@@H](Cc2ccccc2)C(=O)N2[C@@H]1C[C@@H](C(=O)O)[C@H]2c1ccc(O)cc1
0.661

State, in one line, measured composite z-score of CCC(CC)C(O)C1C=CC2C(=O)N(c3ccccc3)C(=O)C2N1Nc1ccc([N+](=O)[O-])cc1 (stereo not given)
0.944

Write down composite z-score measured for item NC(=O)[C@H]1[C@@H]2C(=O)O[C@@H](c3ccccc3)[C@@H](c3ccccc3)N2[C@@H](c2ccc(O)cc2)[C@]12C(=O)Nc1ccc(C#CC3=CCCCC3)cc12
0.0569

# return recorded composite z-score for input C=CCNC(=O)[C@@H]1[C@H]2C(=O)O[C@H](c3ccccc3)[C@H](c3ccccc3)N2[C@H](c2ccc(OCCO)cc2)[C@@]12C(=O)N(C(=O)OCCOC)c1ccc(C#CCCO)cc12
0.273

====

System: Inhibin beta A chain (activin A)
TEST PROTOCOL: INHBA (activin A) binders on microarrays, primary screen, biochemical, small-molecule microarray, 635 nm fluorescence scan (AID 1107);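 note: mouse activin A protein probed at 4.33 µg/mL on printed slides; score merges bound-protein fluorescence near 667 nm with spot signal-to-noise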
TEST SETTINGS: small-molecule microarray binding, higher = more signal
Given measured composite z-score, output Y if it is greater than or equal to 1 and N if not.

Exam item: decide whether the reported composite z-score for CC(C)CNC(=O)[C@@]1(C)c2ccccc2C(=O)N(Cc2cc(C(F)(F)F)cc(C(F)(F)F)c2)[C@H]1c1ccc(CO)cc1 is at least 1.
N

====

SYSTEM: Epidermal growth factor receptor (Homo sapiens)
TEST PROTOCOL: EGFR binders on small-molecule microarrays, primary screen, biochemical, small-molecule microarray, 635 nm fluorescence (AID 1104);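 note: score merges 667 nm emission intensity with spot signal to noise over triplicate slides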
TEST SETTINGS: EGFR binding, higher = more signal
Outcome label depends on composite z-score relative to -0.4: at/above gives 1 (yes), below gives 0 (no).

CC(C)N1CC=CC23O[C@@H]4/C=C\CCCOC(=O)C4[C@H]2C(=O)N(CCCCCCO)[C@@H]3C1=O (some centres not stated); 0 (no)
CCCCCN1CC=CC23O[C@@H]4/C=C\CCC(C)OC(=O)C4[C@H]2C(=O)N(CCCCCCO)[C@@H]3C1=O (some centres not stated); 0 (no)
C=C[C@@H](OC)[C@H](OC(=O)Nc1ccc(OC)cc1)c1ccc(OC)c(O)c1; 0 (no)

Exam item: decide whether the reported composite z-score for Cc1ccc(S[C@]2(C(=O)NCC(C)C)CC(=O)N(C3Cc4ccccc4C3)[C@@H]2c2ccc(CO)cc2I)cc1 is at least -0.4.
0 (no)

Entry C=C(C)C1CCC(C(O)C2C=CC3C(=O)N(C)C(=O)C3N2Nc2cc(OC)c(OC)c(OC)c2)CC1 (configuration not stated) : is its composite z-score no less than -0.4?
1 (yes)

Say whether C=CCNC(=O)[C@H]1[C@@H]2C(=O)O[C@@H](c3ccccc3)[C@@H](c3ccccc3)N2[C@@H](c2ccc(OCCO)cc2)[C@]12C(=O)Nc1ccc(C#CCNC(N)=O)cc12 shows composite z-score of -0.4 or more.
0 (no)

====

TEST PROTOCOL: inhibitors of hydroxyurea-induced Chk1 phosphorylation, primary screen, imaging, HeLa, phospho-Chk1 antibody, percent positive cells (AID 1186)
TEST SETTINGS: hydroxyurea-induced phospho-Chk1 immunofluorescence imaging, higher = more signal
READOUT TYPE: z-score
// return just the number, without any unit appended

See these solved cases before continuing.
C=CCC(OC(C)=O)[C@@H]1[C@@H](N(Cc2cc3ccccc3o2)C(=O)c2ccc(-c3ccccc3)cc2)c2cc(OCCCO)ccc2N1C(=O)Cc1ccc(OC)cc1 (some centres not stated); 0.754
CCOC(=O)C=Cc1ccccc1O; -0.312
[N-]=[N+]=NCc1ccccc1[C@H]1OC(c2ccc(OCCCO)cc2)=N[C@@]1(Cc1ccccc1)C(=O)NCCN1CCOCC1; -0.0389

Let's switch to this molecule now.
Return the recorded z-score value; entry: O=C1C2C=CC(C(O)C=Cc3ccc([N+](=O)[O-])cc3)N(Nc3ccccc3)C2C(=O)N1c1ccccc1 (configuration not stated)
-0.744

====

TEST PROTOCOL: RPMI8226 myeloma cell viability, profiling panel, resazurin fluorescence, basal, 24 h, PK04 Diversity Set (AID 1180);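 note: RPMI8826 multiple myeloma cell line at 5000 cells per well; test concentration not given here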
TEST SETTINGS: higher = more signal
Collected z-score values appear next to each entry.
Lab note: jot the number down without any unit.

COc1cc2c(cc1O)C(c1cccs1)N(Cc1sc3ccccc3c1Cl)CC2 (stereo not drawn); -0.94

Tell us which z-score value is on record for CN(C)CCCC[C@@H]1NC(=O)[C@@H]2C[C@H](C(=O)O)[C@H](c3cccc(OCCO)c3)N2C1=O
0.259

Quote z-score reported for COc1ccc(C#Cc2ccc3c(c2)[C@]2(C(=O)N3)[C@H](c3ccc(OCCO)cc3)N3[C@H](c4ccccc4)[C@H](c4ccccc4)OC(=O)[C@H]3[C@@H]2C(=O)N2CCc3cc(OC)c(OC)cc3C2)cc1 please.
0.0844

Answer with reported z-score of C=C(COC)C(=O)CC[C@H](OC(C)=O)c1ccc(OCCO)cc1
-0.873

Entry C#C[C@@H](CC)O[Si](C#CCCCC#N)(C(C)C)C(C)C needs its z-score filled in; supply it.
-0.221

In one line, give reported z-score of the entry [N-]=[N+]=NCc1ccccc1[C@@H]1OC(c2ccc(OCCCO)cc2)=N[C@]1(Cc1ccccc1N=[N+]=[N-])C(=O)N1CCCCC1 .
-2.88

Report z-score for NCCCCCNC(=O)[C@@H]1C[C@@H]2C(=O)N3CCC[C@H]3C(=O)N2[C@@H]1c1ccc(O)cc1
0.272

Please report z-score for the following molecule: CC(C)CCC[C@@H](C)[C@H]1CC[C@@]2(C)C3=C(CC[C@]12C)[C@@]1(C)CC[C@H](OC(=O)c2ccccc2)C(C)(C)C1CC3 (stereo partly drawn)
0.56

Every entry's value here was drawn from PubChem BioAssay.
